- target_entity: human cloned CHRM3 receptor (M3_CHO cells) (Homo sapiens, UniProt P20309)
- Construct: expressed in transfected cells; host or cells: CHO-K1
- Sequence (P20309 whole entry): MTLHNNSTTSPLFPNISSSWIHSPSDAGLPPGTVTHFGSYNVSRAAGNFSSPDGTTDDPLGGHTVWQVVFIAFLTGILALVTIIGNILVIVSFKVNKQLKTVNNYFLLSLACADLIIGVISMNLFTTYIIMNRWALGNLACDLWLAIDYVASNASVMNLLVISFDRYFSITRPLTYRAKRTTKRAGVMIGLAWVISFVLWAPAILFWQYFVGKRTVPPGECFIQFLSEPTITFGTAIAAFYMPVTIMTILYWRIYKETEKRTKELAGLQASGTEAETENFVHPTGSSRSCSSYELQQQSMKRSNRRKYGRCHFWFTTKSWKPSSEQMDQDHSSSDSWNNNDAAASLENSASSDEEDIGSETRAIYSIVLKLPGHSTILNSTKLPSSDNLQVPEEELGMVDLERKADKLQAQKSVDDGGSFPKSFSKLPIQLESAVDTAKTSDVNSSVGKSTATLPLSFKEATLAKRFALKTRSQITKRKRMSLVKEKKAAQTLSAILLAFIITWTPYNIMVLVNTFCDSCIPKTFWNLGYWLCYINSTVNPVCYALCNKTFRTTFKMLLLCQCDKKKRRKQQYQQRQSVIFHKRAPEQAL
- assay_explanation: CHRM3 Ca++ Flux Assay (agonist mode, FDSS 7000EX)
- Assay type: cell-based
- experimental_context: Percent Activity measured to EC100 of Carbachol
Reported M3 FDSS PA values are given for each entry in this list.
Your answer should be a plain number; it is taken to be in %.

Some solved entries appear below for comparison.
[[record]]
molecule = "O=C(N1CC2(CC[C@@H](N3CCC(c4ccccc4OCc4ncccn4)CC3)C2)C1)C1(F)CC1 (single isomer, unassigned)"
units = "%"
experimental_result = 0

[[record]]
molecule = "O=C(N1CC2(CC[C@@H](N3CCC(c4cc(F)ccc4OC4CC5(COC5)C4)CC3)C2)C1)C1(F)CC1 (single isomer, unassigned) [Example 11B]"
units = "%"
experimental_result = 0


Now take the following molecule into account.
Ask: # input molecule: O=C(N1CC2(CC[C@@H](N3CCC(c4ccccc4OCC4CC4)CC3)C2)C1)C1(F)CC1 (single isomer, unassigned) [Example 7T] ; wanted: its M3 FDSS PA
Result: 0

====

- target_entity: human cloned CHRM4 receptor (M4_CHO cells) (Homo sapiens)
- Construct: expressed in transfected cells; host or cells: CHO-K1
- assay_explanation: CHRM4 Ca++ Flux Assay (agonist mode, FDSS 7000EX)
- Format: cell-based
- experimental_context: Percent Activity, read-out: M4 FDSS PA
Reported Emax values are given for each entry in this list.
Your answer should be a plain number; it is taken to be in %.

Some solved entries appear below for comparison.
[[record]]
molecule = "CC(C)(O)COc1ccccc1C1CCN([C@@H]2CCC3(C2)CN(c2nnco2)C3)CC1 [Example 2A]"
target_entity = "human cloned CHRM4 receptor (M4_CHO cells) (Homo sapiens)"
measured_property = "Emax"
experimental_result = 69

[[record]]
molecule = "CC(C)(F)COc1ccccc1C1CCN([C@@H]2CCC3(C2)CN(C(=O)C2COC2)C3)CC1 [Example 7B]"
target_entity = "human cloned CHRM4 receptor (M4_CHO cells) (Homo sapiens)"
measured_property = "Emax"
experimental_result = 44

[[record]]
molecule = "O=C(C1COC1)N1CC2(CC[C@@H](N3CCC(c4ccccc4OCCOC4COC4)CC3)C2)C1 [Example 7EE]"
target_entity = "human cloned CHRM4 receptor (M4_CHO cells) (Homo sapiens)"
measured_property = "Emax"
experimental_result = 61

[[record]]
molecule = "c1ccc(C2CCN([C@@H]3CCC4(C3)CN(c3nnco3)C4)CC2)c(-c2ncco2)c1 [Example 2M]"
target_entity = "human cloned CHRM4 receptor (M4_CHO cells) (Homo sapiens)"
measured_property = "Emax"
experimental_result = 82

[[record]]
molecule = "c1ccc(C2CCN([C@@H]3CCC4(C3)CN(c3cncnc3)C4)CC2)c(C2CCOCC2)c1 [Example 5BB]"
target_entity = "human cloned CHRM4 receptor (M4_CHO cells) (Homo sapiens)"
measured_property = "Emax"
experimental_result = 80


Ask: # input molecule: COc1ccccc1C1CCN([C@@H]2CCC3(C2)CN(c2ncon2)C3)CC1 [Example 4A] ; wanted: its Emax
Result: 77

Ask: # input molecule: COc1ccccc1C1CCN([C@@H]2CCC3(C2)CN(c2cccnc2)C3)CC1 [Example 5K] ; wanted: its Emax
Result: 64

Ask: # input molecule: CC(C)(O)CCOc1ccccc1C1CCN([C@@H]2CCC3(C2)CN(c2ncns2)C3)CC1 [Example 3L] ; wanted: its Emax
Result: 34

====

- target_entity: human cloned CHRM2 receptor (M2_CHO cells) (Homo sapiens)
- Construct: expressed in transfected cells; host or cells: CHO-K1
- Sequence (P08172 1-466): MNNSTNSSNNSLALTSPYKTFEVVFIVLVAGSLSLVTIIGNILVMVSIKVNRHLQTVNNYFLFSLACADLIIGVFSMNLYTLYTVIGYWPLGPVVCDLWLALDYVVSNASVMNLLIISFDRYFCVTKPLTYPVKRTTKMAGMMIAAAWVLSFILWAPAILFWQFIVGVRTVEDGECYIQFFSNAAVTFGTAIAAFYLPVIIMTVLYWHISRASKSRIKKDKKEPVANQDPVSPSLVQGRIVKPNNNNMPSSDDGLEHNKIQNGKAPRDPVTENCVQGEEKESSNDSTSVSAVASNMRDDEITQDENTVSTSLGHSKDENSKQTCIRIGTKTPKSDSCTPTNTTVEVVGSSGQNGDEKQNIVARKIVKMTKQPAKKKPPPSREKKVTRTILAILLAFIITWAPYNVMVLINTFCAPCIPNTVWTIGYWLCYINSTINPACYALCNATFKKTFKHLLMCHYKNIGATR
- assay_explanation: CHRM2 Ca++ Flux Assay (agonist mode, FDSS 7000EX)
- Type: cell-based
- experimental_context: agonist mode; geometric mean if tested more than once; read-out: M2 FDSS EC50
measured_property: EC50 (nM)
Your answer should be a plain number; it is taken to be in nM.

[[record]]
compound = "c1ccc(C2CCN([C@@H]3CCC4(C3)CN(c3nnco3)C4)CC2)c(OCC2CCOCC2)c1"
experimental_result = 136

[[record]]
compound = "O=C(N1CC2(CC[C@@H](N3CCC(c4ccccc4OCC4CC4)CC3)C2)C1)C1(F)CC1 (single isomer, unassigned)"
experimental_result = 18600

[[record]]
compound = "N#CCCOc1ccccc1C1CCN([C@@H]2CCC3(C2)CN(C(=O)C2COC2)C3)CC1"
experimental_result = 92


Ask: # input compound: Fc1cncc(N2CC3(CC[C@@H](N4CCC(c5cc(F)ccc5OC5CCOCC5)CC4)C3)C2)c1 (single isomer, unassigned) [Example 10B] ; wanted: its EC50
Result: 14400

Ask: # input compound: c1ccc(C2CCN([C@@H]3CCC4(C3)CN(c3nnco3)C4)CC2)c(OC[C@@H]2COCCO2)c1 ; wanted: its EC50
Result: 21

Ask: # input compound: COc1ccccc1C1CCN([C@@H]2CCC3(C2)CN(c2nccnc2C(F)(F)F)C3)CC1 ; wanted: its EC50
Result: 13200

====

- target_entity: human cloned CHRM2 receptor (M2_CHO cells) (Homo sapiens)
- Construct: expressed in transfected cells; host or cells: CHO-K1
- assay_explanation: CHRM2 Ca++ Flux Assay (agonist mode, FDSS 7000EX)
- Type: cell-based
- experimental_context: agonist mode; geometric mean if tested more than once; read-out: M2 FDSS EC50
pEC50: −log10 of the molar value.
Could you label it Met if measured pEC50 is 7 or higher, and Not met otherwise?

Worked cases, answers included:
[[record]]
compound = "c1ccc(C2CCN([C@@H]3CCC4(C3)CN(c3nnco3)C4)CC2)c(C2CCOCC2)c1 [Example 2H]"
target_entity = "human cloned CHRM2 receptor (M2_CHO cells) (Homo sapiens)"
category = "Not met"

[[record]]
compound = "O=C(C1COC1)N1CC2(CC[C@@H](N3CCC(c4ccccc4OCCC(F)(F)F)CC3)C2)C1 [Example 7GG]"
target_entity = "human cloned CHRM2 receptor (M2_CHO cells) (Homo sapiens)"
category = "Not met"

[[record]]
compound = "Fc1ccc(C2CCOCC2)c(C2CCN([C@@H]3CCC4(C3)CN(c3cncnc3)C4)CC2)c1 (single isomer, unassigned) [Example 10C]"
target_entity = "human cloned CHRM2 receptor (M2_CHO cells) (Homo sapiens)"
category = "Met"

[[record]]
compound = "c1ccc(C2CCN([C@@H]3CCC4(C3)CN(c3nnco3)C4)CC2)c(OC[C@H]2COCCO2)c1 [Example 1C]"
target_entity = "human cloned CHRM2 receptor (M2_CHO cells) (Homo sapiens)"
category = "Met"

[[record]]
compound = "O=C(N1CC2(CC[C@@H](N3CCC(c4ccccc4OC(F)(F)F)CC3)C2)C1)C1(F)CC1 (single isomer, unassigned) [Example 9A]"
target_entity = "human cloned CHRM2 receptor (M2_CHO cells) (Homo sapiens)"
category = "Not met"

[[record]]
compound = "c1ccc(C2CCN([C@@H]3CCC4(C3)CN(c3nnco3)C4)CC2)c(O[C@@H]2CCOC2)c1 [Example 2B]"
target_entity = "human cloned CHRM2 receptor (M2_CHO cells) (Homo sapiens)"
category = "Met"

[[record]]
compound = "O=C(C1COC1)N1CC2(CC[C@@H](N3CCC(c4ccccc4OCCOC4COC4)CC3)C2)C1 [Example 7EE]"
target_entity = "human cloned CHRM2 receptor (M2_CHO cells) (Homo sapiens)"
category = "Not met"


Ask: Say whether COc1ccccc1C1CCN([C@@H]2CCC3(C2)CN(c2ncon2)C3)CC1 [Example 4A] shows pEC50 of 7 or more.
Result: Met

====

- target_entity: human cloned CHRM4 receptor (M4_CHO cells) (Homo sapiens, UniProt P08173)
- Construct: expressed in transfected cells; host or cells: CHO-K1
- Sequence (P08173 1-479): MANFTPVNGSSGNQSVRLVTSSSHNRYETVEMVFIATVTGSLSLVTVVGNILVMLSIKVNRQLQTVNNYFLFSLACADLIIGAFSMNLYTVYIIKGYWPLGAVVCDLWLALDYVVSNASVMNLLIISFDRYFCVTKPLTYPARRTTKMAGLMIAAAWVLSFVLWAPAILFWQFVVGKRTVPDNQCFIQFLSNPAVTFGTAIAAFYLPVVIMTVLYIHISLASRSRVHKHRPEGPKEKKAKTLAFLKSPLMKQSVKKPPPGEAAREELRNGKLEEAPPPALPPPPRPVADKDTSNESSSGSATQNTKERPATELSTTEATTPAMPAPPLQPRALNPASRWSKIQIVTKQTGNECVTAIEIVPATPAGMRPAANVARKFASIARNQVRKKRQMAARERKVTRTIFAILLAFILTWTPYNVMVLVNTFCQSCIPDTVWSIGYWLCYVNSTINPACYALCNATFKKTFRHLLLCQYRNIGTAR
- assay_explanation: CHRM4 Ca++ Flux Assay (agonist mode, FDSS 7000EX)
- Assay type: cell-based
- experimental_context: Percent Activity
Could you label it true if measured M4 FDSS PA is 50% or higher, and false otherwise?

Worked cases, answers included:
[[record]]
compound = "O=C(N1CC2(CC[C@@H](N3CCC(c4ccccc4OCCC(F)(F)F)CC3)C2)C1)C1(F)CC1 (single isomer, unassigned)"
target_entity = "human cloned CHRM4 receptor (M4_CHO cells) (Homo sapiens, UniProt P08173)"
category = "true"

[[record]]
compound = "O[C@H]1CC[C@@H](c2ccccc2C2CCN([C@@H]3CCC4(C3)CN(c3nnco3)C4)CC2)CC1 (single isomer, unassigned)"
target_entity = "human cloned CHRM4 receptor (M4_CHO cells) (Homo sapiens, UniProt P08173)"
category = "true"

[[record]]
compound = "O=C(N1CC2(CC[C@@H](N3CCC(c4ccccc4OC4CC5(COC5)C4)CC3)C2)C1)C1(F)CC1 (single isomer, unassigned) [Example 11C]"
target_entity = "human cloned CHRM4 receptor (M4_CHO cells) (Homo sapiens, UniProt P08173)"
category = "false"

[[record]]
compound = "Fc1cncc(N2CC3(CC[C@@H](N4CCC(c5cc(F)ccc5OC5CCOCC5)CC4)C3)C2)c1 (single isomer, unassigned) [Example 10A]"
target_entity = "human cloned CHRM4 receptor (M4_CHO cells) (Homo sapiens, UniProt P08173)"
category = "true"

[[record]]
compound = "O=C(N1CC2(CC[C@@H](N3CCC(c4ccccc4OC4CCOCC4)CC3)C2)C1)C1(F)CC1 (single isomer, unassigned) [Example 9F]"
target_entity = "human cloned CHRM4 receptor (M4_CHO cells) (Homo sapiens, UniProt P08173)"
category = "false"


Ask: Say whether COc1ccc(Cl)cc1C1CCN([C@H]2CCC3(C2)CN(C(=O)C2(F)CC2)C3)CC1 (single isomer, unassigned) [Example 8A] shows M4 FDSS PA of 50% or more.
Result: false

Ask: Say whether Fc1ccc(OC2CC3(COC3)C2)c(C2CCN([C@@H]3CCC4(C3)CN(c3cncnc3)C4)CC2)c1 (single isomer, unassigned) [Example 10E] shows M4 FDSS PA of 50% or more.
Result: true

Ask: Say whether Cc1nnc(COc2ccccc2C2CCN([C@@H]3CCC4(C3)CN(C(=O)C3(F)CC3)C4)CC2)s1 (single isomer, unassigned) shows M4 FDSS PA of 50% or more.
Result: false
